Target: Free fatty acid receptor 1 (Rattus norvegicus)
Assay: Agonist activity at rat PK-tagged GPR40 expressed in human U2OS cells assessed as EA-tagged beta-arrestin recruitment after 90 mins in presence of 1 % heat inactivated FBS by beta-galactosidase reporter gene assay relative to untreated control
Format: cell-based
I'd appreciate it if you could supply %max values for the items below.
Give bare numbers, in %.

List reported %max for each of these compounds:
1. CC#C[C@@H](CC(=O)O)c1ccc(OCc2ccc3nc(-c4ccc(C#N)cc4)nn3c2)cc1
2. CC#C[C@@H](CC(=O)O)c1ccc(OCc2ccc3nc(-c4ccc(OC(F)F)cc4)nn3c2)cc1
3. CC#C[C@@H](CC(=O)O)c1ccc(OCc2ccc3nc(-c4c(C)cc(OCCCS(C)(=O)=O)cc4C)nn3c2)cc1
4. CC#C[C@@H](CC(=O)O)c1ccc(OCc2ccc3nc(-c4c(C)cccc4C)nn3c2)cc1
5. CC#C[C@@H](CC(=O)O)c1ccc(OCc2ccc3nc(-c4ccc(OCCC(C)(C)O)cc4)nn3c2)cc1
6. CC#C[C@@H](CC(=O)O)c1ccc(OCc2ccc3nc(-c4ccc(OCCOC)cc4)nn3c2)cc1

1. 125
2. 142
3. 140
4. 130
5. 121
6. 133

What %max value was documented for this compound, "CC#C[C@@H](CC(=O)O)c1ccc(OCc2ccc3nc(-c4ccc(C(C)C)cc4)nn3c2)cc1" ?
123

----------
Test: Clearance in Sprague-Dawley rat at 1 mg/kg, iv
Assay type: ADME, organism-based
Details: in vivo
measure.name: clearance (mL/min/kg)
Give bare numbers, in mL/min/kg.

What clearance value was documented for this compound, "CC#C[C@@H](CC(=O)O)c1ccc(OCc2ccc3nc(-c4c(C)cccc4C)nn3c2)cc1" ?
1.32

----------
Assay: Half life in Sprague-Dawley rat at 1 mg/kg, po
Format: ADME, organism-based
Conditions: in vivo
measure.name: half-life (h)
One number for each entry, in h.

What half-life value was documented for this compound, "CC#C[C@@H](CC(=O)O)c1ccc(OCc2ccc3nc(-c4c(C)cccc4C)nn3c2)cc1" ?
4.68

----------
Test: Dissociation constant, pKa of the compound
Type: physicochemical
measure.name: pKa

Worked examples follow.
{"smiles.data": "CC#C[C@@H](CC(=O)O)c1ccc(OCc2ccc(CN3CCCc4cccc(OC)c43)s2)cc1", "measure.name": "pKa", "reported.measurement": "3.4 to 6"}
{"smiles.data": "CC#C[C@@H](CC(=O)O)c1ccc(OCc2ccc(N3CCC4(CCc5ccccc54)CC3)s2)cc1", "measure.name": "pKa", "reported.measurement": "3.4 to 7.9"}
{"smiles.data": "CC#C[C@@H](CC(=O)O)c1ccc(OCc2ccc3nc(-c4c(C)cccc4C)nn3c2)cc1", "measure.name": "pKa", "reported.measurement": 4.3}

What pKa value was documented for this compound, "CC#C[C@@H](CC(=O)O)c1ccc(OCc2ccc(CN3CCC4(C=Cc5ccccc54)CC3)cc2)cc1" ?
4.1 to 8.1

----------
Experiment: Intrinsic clearance in human microsomes
Assay type: ADME, Microsome
measure.name: K (h⁻¹)
Answers are plain numbers, in h⁻¹.

Worked examples follow.
{"smiles.data": "CC#C[C@@H](CC(=O)O)c1ccc(OCc2ccc(CN3CCC4(C=Cc5ccccc54)CC3)cc2)cc1", "measure.name": "K", "value.unit": "h⁻¹", "reported.measurement": 0.033}
{"smiles.data": "CC#C[C@@H](CC(=O)O)c1ccc(OCc2ccc(N3CCC4(CCc5ccccc54)CC3)s2)cc1", "measure.name": "K", "value.unit": "h⁻¹", "reported.measurement": 0.109}

// moving on: another record for K
What K value was documented for this molecule, "CC#C[C@@H](CC(=O)O)c1ccc(OCc2ccc(CN3CCCc4cccc(OC)c43)s2)cc1" ?
0.0048

All values here come from ChEMBL document CHEMBL4024777.
